biological target: HIV-1 integrase (IN), 3′-processing (Human immunodeficiency virus type 1 group M subtype B); assay: biochemical; conditions: 3′-P IC50, metal cofactor Mg2+
measured.metric: IC50

The molecule identified as O=C1c2c(c3n(c(=O)c2O)CCCC3)C(=O)N1Cc1ccc(F)c(Cl)c1 registered its IC50 at > 111 µM

* * *

target: UniProt P12497; test: biochemical; conditions: 3′-Processing IC50, in vitro IN assays as described in reference [4]
Measured IC50 values are reported for all entries that follow.

Below are worked cases with known answers.
[[record]]
molecule = "O=C1c2ccc(O)c(O)c2C(=O)N1Cc1ccc(F)c(F)c1 [3-3, reference compound]"
value_observed = "27 µM"

[[record]]
molecule = "O=C1c2c(c3n(c(=O)c2O)CCCCC3)C(=O)N1Cc1ccc(F)cc1 [4c-2]"
value_observed = "> 111 µM"

[[record]]
molecule = "O=C1c2ccc(O)c(O)c2C(=O)N1Cc1cccc(Cl)c1F [3-4, reference compound]"
value_observed = "25 µM"

[[record]]
molecule = "O=C1c2c(c3n(c(=O)c2O)CCCCC3)C(=O)N1Cc1ccc(F)c(Cl)c1 [4c-1]"
value_observed = "> 111 µM"

[[record]]
molecule = "O=C1c2ccc(O)c(O)c2C(=O)N1Cc1ccccc1 [3-5]"
value_observed = "72 µM"

[[record]]
molecule = "O=C1c2c(c3n(c(=O)c2O)CCCCC3)C(=O)N1Cc1cccc2ccccc12 [4c-6]"
value_observed = "> 111 µM"


Readout IC50 for O=C1c2c(c3n(c(=O)c2O)CCCCC3)C(=O)N1Cc1ccccc1 [4c-5] , test system UniProt P12497, was > 111 µM

Readout IC50 for O=C1c2c(c3n(c(=O)c2O)CCCCCC3)C(=O)N1Cc1ccc(F)c(Cl)c1 [4d-1] , test system UniProt P12497, was > 111 µM

Readout IC50 for O=C1c2c(c3n(c(=O)c2O)CCC3)C(=O)N1Cc1ccc(F)c(Cl)c1 [4a-1] , test system UniProt P12497, was > 111 µM

Readout IC50 for O=C1c2c(c3n(c(=O)c2O)CCCC3)C(=O)N1Cc1ccc(F)c(Cl)c1 [4b-1] , test system UniProt P12497, was > 111 µM

Readout IC50 for O=C1c2c(c3n(c(=O)c2O)CCCCC3)C(=O)N1Cc1ccc(F)c(F)c1 [4c-3] , test system UniProt P12497, was > 111 µM

* * *

biological target: HIV-1 integrase (IN), strand transfer, wild-type (Human immunodeficiency virus type 1 group M subtype B)
measured.metric: IC50 (nM)
Response body: numeric value in nM, unit text excluded.

The compound identified as O=C1c2ccc(O)c(O)c2C(=O)N1Cc1ccc(F)c(Cl)c1 [3-1, reference compound] registered its IC50 at 170

* * *

biological target: HIV-1 integrase (IN), 3′-processing (Human immunodeficiency virus type 1 group M subtype B, UniProt P12497); test: biochemical; conditions: 3′-Processing IC50, in vitro IN assays as described in reference [4]
measured.metric: pIC50
The read-out pIC50 is expressed as -log10 of concentration in moles per litre.

[[record]]
compound = "O=C1c2ccc(O)c(O)c2C(=O)N1Cc1ccc(F)cc1 [3-2, reference compound]"
measured_metric = "pIC50"
value_observed = 5.10

[[record]]
compound = "O=C1c2ccc(O)c(O)c2C(=O)N1Cc1ccc(F)c(Cl)c1 [3-1, reference compound]"
measured_metric = "pIC50"
value_observed = 4.85


The compound identified as O=C1c2ccc(O)c(O)c2C(=O)N1Cc1cccc2ccccc12 registered its pIC50 at 3.82
